molecular target: AHR (Homo sapiens, UniProt P35869); construct: U87 MG glioblastoma cells (ATCC #HTB-14) endogenously expressing AHR; endogenous in cells; host or cells: U87 MG glioblastoma cells (ATCC #HTB-14); assay: In vitro assay 1: antagonism in human cell line (AHR transactivation, firefly luciferase reporter, kynurenic acid prestimulated); format: cell-based; settings: AHR Antagonism Human IC50 [M]
Sequence (P35869 11-848): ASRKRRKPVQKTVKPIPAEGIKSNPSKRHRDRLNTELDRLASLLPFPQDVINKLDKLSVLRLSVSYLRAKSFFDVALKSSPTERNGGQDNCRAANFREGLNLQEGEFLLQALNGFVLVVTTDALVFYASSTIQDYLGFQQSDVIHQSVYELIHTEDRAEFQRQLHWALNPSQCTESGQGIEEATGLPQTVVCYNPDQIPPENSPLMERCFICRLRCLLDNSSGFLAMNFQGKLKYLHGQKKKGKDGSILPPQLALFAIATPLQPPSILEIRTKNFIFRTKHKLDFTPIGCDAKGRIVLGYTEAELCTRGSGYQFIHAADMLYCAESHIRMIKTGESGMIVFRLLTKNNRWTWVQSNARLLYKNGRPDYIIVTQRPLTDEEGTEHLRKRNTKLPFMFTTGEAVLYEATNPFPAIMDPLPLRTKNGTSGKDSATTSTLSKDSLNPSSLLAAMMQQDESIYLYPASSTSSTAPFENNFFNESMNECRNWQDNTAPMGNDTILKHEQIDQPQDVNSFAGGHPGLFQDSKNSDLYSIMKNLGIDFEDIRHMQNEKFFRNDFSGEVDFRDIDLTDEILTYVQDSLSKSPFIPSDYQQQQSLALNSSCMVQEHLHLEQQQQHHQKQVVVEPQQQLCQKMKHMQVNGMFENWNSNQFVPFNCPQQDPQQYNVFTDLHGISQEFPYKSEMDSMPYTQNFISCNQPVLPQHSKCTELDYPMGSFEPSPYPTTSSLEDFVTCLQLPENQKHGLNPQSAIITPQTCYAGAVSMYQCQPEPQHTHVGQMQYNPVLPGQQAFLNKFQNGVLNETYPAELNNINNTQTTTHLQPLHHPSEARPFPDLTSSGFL
quantity_measured: IC50 (M)

CC(C)Oc1ccc(-c2nc3c4ccccc4nc(N[C@@H]4CCCCNC4=O)n3n2)cc1F	1.29e-09
O=C1NCCCC[C@H]1Nc1nc2ccccc2c2nc(-c3ccc(Cl)cc3OC(F)F)nn12	9.92e-10

P: Cc1cscc1-c1nc2c3ccccc3nc(N[C@H]3CCCCNC3=O)n2n1
Q: O=C1NCCCC[C@H]1Nc1nc2c(Br)cccc2c2nc(-c3cn[nH]c3)nn12
R: COc1cccc(-c2nc3c4cccc(C)c4nc(N[C@@H]4CCCCNC4=O)n3n2)c1
S: Cn1cc(-c2nc3c4ccccc4nc(NC4CCCNC4=O)n3n2)cn1 (centres unmarked) [Example 13]
Task: Rank descending by IC50. # output: labels, in the requested order
Result: S, P, Q, R
